Molecular target: NRAS G12C (Homo sapiens (Human), UniProt P01111+P62937, G12C)
Sequence (P01111 whole entry G12C): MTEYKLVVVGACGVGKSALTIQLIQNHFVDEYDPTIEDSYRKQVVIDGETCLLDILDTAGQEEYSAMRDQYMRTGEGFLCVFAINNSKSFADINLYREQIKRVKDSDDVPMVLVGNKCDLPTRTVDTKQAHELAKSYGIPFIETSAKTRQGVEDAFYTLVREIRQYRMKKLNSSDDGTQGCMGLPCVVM
Sequence (P62937 whole entry): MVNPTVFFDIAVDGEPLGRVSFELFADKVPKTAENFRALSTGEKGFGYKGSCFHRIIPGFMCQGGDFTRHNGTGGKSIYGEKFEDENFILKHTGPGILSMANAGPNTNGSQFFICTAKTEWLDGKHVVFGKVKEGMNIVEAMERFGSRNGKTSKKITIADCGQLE
Assay: Ras-Raf (BRAF RBD) disruption / FRET / MOA assay, NRAS G12C
Type: biochemical
Conditions: read-out: IC50* NRAS G12C FRET data
Attribute: IC50

| molecule | IC50 |
| --- | --- |
| C=CC(=O)N1CC[C@H](C(=O)N(C)[C@H](C(=O)N[C@H]2Cc3cccc(c3)-c3ccc4c(c3)c(c(-c3cc(C5=CCN(C)CC5)cnc3[C@H](C)OC)n4CC)CC(C)(C)COC(=O)[C@@H]3CCCN(N3)C2=O)C(C)C)C1 (atropisomer, axis not shown) [Example A514] | 1000 to 10000 nM |

Now look at this one.
For the molecule shown here, C=CC(=O)N1C[C@H](C)N(C(=O)N(C)[C@H](C(=O)N[C@H]2Cc3nc(cs3)-c3ccc4c(c3)c(c(-c3cccnc3[C@H](C)OC)n4CC)CC(C)(C)COC(=O)[C@@H]3CCCN(N3)C2=O)C(C)C)C[C@@H]1C (atropisomer, axis not shown) , give the reported IC50.
10 to 100 nM
